# assayedSystem: human MRGPRX2 (Homo sapiens)
# Construct: expressed in transfected cells; host or cells: CHO cells, stably transfected (G418 and Hygromycin B selection)
# Sequence (Q96LB1 1-330): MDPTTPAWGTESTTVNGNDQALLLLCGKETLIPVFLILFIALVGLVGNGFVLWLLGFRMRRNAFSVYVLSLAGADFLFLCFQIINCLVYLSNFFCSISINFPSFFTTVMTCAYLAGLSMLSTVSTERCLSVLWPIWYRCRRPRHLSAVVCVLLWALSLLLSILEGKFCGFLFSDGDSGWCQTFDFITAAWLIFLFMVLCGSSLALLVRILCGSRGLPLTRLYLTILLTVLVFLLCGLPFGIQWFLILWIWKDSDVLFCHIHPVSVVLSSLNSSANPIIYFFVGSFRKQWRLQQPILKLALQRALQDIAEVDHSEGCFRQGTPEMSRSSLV
# procedureDetails: MRGPRX2 activity: IP-One Gq HTRF assay in CHO cells, antagonism versus 0.3 uM Cortistatin-14
# Assay type: cell-based
# conditionSummary: versus 0.3 uM Cortistatin-14 agonist, CHO cells expressing human MRGPRX2, read-out: MRGPRX2 Antagonist Activity
quantityKind: IC50

{"compound": "O=S1(=O)N=C(NCc2ncccc2F)Nc2c1ccc(F)c2Oc1ccc(Cl)cc1", "assayedSystem": "human MRGPRX2 (Homo sapiens)", "IC50": "100 to 500 nM"}
{"compound": "O=S1(=O)N=C(NCc2ncccc2Cl)Nc2c(/C=C/c3ccccc3F)cccc21", "assayedSystem": "human MRGPRX2 (Homo sapiens)", "IC50": "< 100 nM"}
{"compound": "CC(C)(F)CNC1=NS(=O)(=O)c2cccc(Oc3ccccc3Cl)c2N1", "assayedSystem": "human MRGPRX2 (Homo sapiens)", "IC50": "1000 to 2500 nM"}

Field IC50 (entry Cc1c(F)cccc1CNC1=NS(=O)(=O)c2ccc(F)c(C(C)c3ccccc3F)c2N1 (single isomer, unassigned) [Compound 10-3B] ) reads < 100 nM

====

compounds and their reported pIC50
# assayedSystem: human MRGPRX2 (Homo sapiens, UniProt Q96LB1)
# Sequence (Q96LB1 1-330): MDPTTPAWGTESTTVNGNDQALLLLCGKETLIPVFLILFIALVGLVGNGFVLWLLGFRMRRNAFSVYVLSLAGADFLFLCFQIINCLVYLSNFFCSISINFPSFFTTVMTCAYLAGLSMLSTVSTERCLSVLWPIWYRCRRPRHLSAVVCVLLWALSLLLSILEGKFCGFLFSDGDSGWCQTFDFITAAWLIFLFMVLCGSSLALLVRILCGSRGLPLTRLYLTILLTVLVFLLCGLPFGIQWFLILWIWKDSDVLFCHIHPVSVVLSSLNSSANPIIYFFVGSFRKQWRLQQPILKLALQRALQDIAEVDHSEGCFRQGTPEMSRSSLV
# procedureDetails: MRGPRX2 activity: IP-One Gq HTRF assay in CHO cells, antagonism versus 0.3 uM Cortistatin-14
# conditionSummary: versus 0.3 uM Cortistatin-14 agonist, CHO cells expressing human MRGPRX2, read-out: MRGPRX2 Antagonist Activity
pIC50: −log10 of the molar value.

{"compound": "CC(c1ccccc1F)c1c(F)ccc2c1NC(NCc1cccc(F)c1)=NS2(=O)=O (single isomer, unassigned) [Compound 10-5B]", "pIC50": "> 7.00"}
{"compound": "CC(c1ccc(N(C)C)cc1)c1c(F)ccc2c1NC(NCc1cccc(F)c1)=NS2(=O)=O (stereo not shown)", "pIC50": "6.30 to 7.00"}
{"compound": "Cc1cccc(CNC2=NS(=O)(=O)c3cccc(Cc4ccccc4Cl)c3N2)c1", "pIC50": "> 7.00"}
{"compound": "CC(c1ccc(F)c(C#N)c1)c1c(F)ccc2c1NC(NCc1cccc(F)c1)=NS2(=O)=O (stereo not shown)", "pIC50": "> 7.00"}
{"compound": "O=S1(=O)N=C(NCc2ncccc2F)Nc2c(NCc3ccccc3Cl)cccc21", "pIC50": "< 5.60"}
{"compound": "O=S1(=O)N=C(NCc2cccc(F)c2)Nc2c1ccc(F)c2Oc1ccccc1Cl", "pIC50": "> 7.00"}
{"compound": "CC(c1ccc(F)cc1)c1c(F)ccc2c1NC(NCc1ncccc1F)=NS2(=O)=O (stereo not shown) [Compound 8-2]", "pIC50": "> 7.00"}
{"compound": "COc1cccc(Cc2cccc3c2NC(NCc2ccccc2F)=NS3(=O)=O)c1", "pIC50": "> 7.00"}
{"compound": "C[C@@H](NC1=NS(=O)(=O)c2ccc(F)c(Oc3ccccc3Cl)c2N1)c1ccccc1F", "pIC50": "< 5.60"}
{"compound": "CC(c1nccs1)c1c(F)ccc2c1NC(NCc1cccc(F)c1)=NS2(=O)=O (stereo not shown)", "pIC50": "> 7.00"}

For reference, reported pIC50 for COc1ccc(C(C)c2c(F)ccc3c2NC(NCc2cccc(F)c2)=NS3(=O)=O)c(F)c1 (stereo not shown) stands at > 7.00

pIC50 reading for Cc1c(F)cccc1CNC1=NS(=O)(=O)c2ccc(F)c(Oc3ccccc3Cl)c2N1 : > 7.00

Field pIC50 (entry CC(c1ccccc1F)c1c(F)ccc2c1NC(NCc1cccc(F)n1)=NS2(=O)=O (single isomer, unassigned) [Compound 10-2A] ) reads > 7.00

====

Listed compounds paired with reported pIC50
# assayedSystem: human MRGPRX2 (Homo sapiens, UniProt Q96LB1)
# procedureDetails: MRGPRX2 activity: IP-One Gq HTRF assay in CHO cells, antagonism versus 0.3 uM Cortistatin-14
# conditionSummary: versus 0.3 uM Cortistatin-14 agonist, CHO cells expressing human MRGPRX2, read-out: MRGPRX2 Antagonist Activity
pIC50: −log10 of the molar value.

{"compound": "CC(c1ccc(F)cc1F)c1c(F)ccc2c1NC(NCc1cccc(F)c1)=NS2(=O)=O (centres unmarked) [Compound 22-25]", "quantityKind": "pIC50", "observedResult": "> 7.00"}

Lab book: pIC50 of O=S1(=O)N=C(NCc2ccc(F)cc2F)Nc2c1ccc(F)c2Oc1ccccc1Cl [Compound 1-29] noted as > 7.00

Form: compound = Cc1ccc(NC2=NS(=O)(=O)c3ccc(F)c(Oc4ccccc4Cl)c3N2)cc1 [Compound 1-13] ; pIC50 = < 5.60

pIC50 reading for O=S1(=O)N=C(NCc2ccc(F)cc2F)Nc2c(Cc3ccccc3Cl)cccc21 [Compound 12-11] : > 7.00

Form: compound = O=S1(=O)N=C(NCc2ncccc2F)Nc2c1ccc(F)c2Oc1ccccc1Cl [Compound 2-1] ; pIC50 = > 7.00

So, O=C(c1ccccc1Cl)c1cccc2c1NC(NCc1ncccc1C(F)(F)F)=NS2(=O)=O [Compound 16-4] ? Its pIC50 was > 7.00

Note to self: pIC50 recorded for O=S1(=O)N=C(NCc2ncccc2F)Nc2c1ccc(F)c2CCc1ccccc1 [Compound 6-1] was 6.30 to 7.00

So for O=S1(=O)N=C(NCc2ncccc2F)Nc2c1ccc(F)c2/C=C/c1ccccc1F [Compound 14-2] , the logged pIC50 turned out to be 6.30 to 7.00

====

# assayedSystem: human MRGPRX2 (Homo sapiens)
# Sequence (Q96LB1 1-330): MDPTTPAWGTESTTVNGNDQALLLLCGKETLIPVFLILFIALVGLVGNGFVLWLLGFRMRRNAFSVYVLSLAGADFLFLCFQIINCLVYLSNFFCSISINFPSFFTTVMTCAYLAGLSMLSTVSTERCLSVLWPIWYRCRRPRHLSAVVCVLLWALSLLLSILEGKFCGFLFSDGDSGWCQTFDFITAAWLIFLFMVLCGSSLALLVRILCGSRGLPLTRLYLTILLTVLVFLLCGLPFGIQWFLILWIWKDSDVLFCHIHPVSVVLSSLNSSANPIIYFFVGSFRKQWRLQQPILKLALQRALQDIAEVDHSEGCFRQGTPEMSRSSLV
# procedureDetails: MRGPRX2 activity: IP-One Gq HTRF assay in CHO cells, antagonism versus 0.3 uM Cortistatin-14
# conditionSummary: versus 0.3 uM Cortistatin-14 agonist, CHO cells expressing human MRGPRX2, read-out: MRGPRX2 Antagonist Activity
pIC50: −log10 of the molar value.
# pIC50 per entry

The compound listed as O=C(c1ccccc1Cl)c1cccc2c1NC(NCc1ncccc1Cl)=NS2(=O)=O shows pIC50 equal to > 7.00

Lab note: measured pIC50 of O=S1(=O)N=C(NCc2ncccc2F)Nc2c1ccc(Cl)c2Oc1ccccc1Cl was > 7.00

The measured pIC50 associated with O=S1(=O)N=C(NCc2ncccc2F)Nc2c1ccc(F)c2C#Cc1ccccc1 reads 6.30 to 7.00

Note to self: pIC50 recorded for O=S1(=O)N=C(NCc2ncccc2F)Nc2c1ccc(F)c2Oc1cccc(Cl)c1Cl was > 7.00

For reference, reported pIC50 for Cc1ccc(CNC2=NS(=O)(=O)c3cccc(Cc4ccccc4Cl)c3N2)c(Cl)c1 stands at > 7.00
